test system: MOLT-4 leukemia; test: NCI tumour cell line growth inhibition, 48 h
# GI50 listing for each entry below

CCN(CC)c1ccc(C=C2C(=O)NC(=S)NC2=O)cc1 = 3.16 µM

## Input Bench note: what GI50 did CCN(CC)CCCC(C)Nc1ccnc2cc(OC)ccc12 (stereo not given) show?
## Output 25.9 µM

## Input Bench note: what GI50 did CC(=O)Nc1ccc(S(=O)(=O)N2C(=O)CCC2C(=O)Nc2ccccc2)cc1 (stereo not given) show?
## Output 1.96 µM

## Input Bench note: what GI50 did CC(=O)Nc1ccc(/C=C/C(=O)c2sc(-n3nc(-c4ccccc4)cc3-c3ccccc3)nc2C)cc1 show?
## Output > 100 µM

## Input Bench note: what GI50 did O=C1Nc2ccc(I)cc2/C1=C/c1cc(Br)c(O)c(Br)c1 show?
## Output > 60.1 µM

====

tested on: LXFL 529 NSCLC; assay: NCI tumour cell line growth inhibition, 48 h
observation.type: TGI (µM)
Provide only the numeric value, understood in µM.

Known TGI results, listed for orientation:
Cc1c(Cl)ccc2[s+]snc12 = 92
CCc1cccc(CC)c1NC1=CC(=O)C(=O)c2ccccc21 = 48.8

Pending compound:
## Input Bench note: what TGI did COc1cc2c(cc1O)CCN[C@@]21CS[C@H]2c3c(OC(C)=O)c(C)c4c(c3C(COC1=O)N1C2C2NC(Cc3cc(C)c(OC)c(O)c32)[C@@H]1C#N)OCO4 (stereo not given in full) show?
## Output 0.111

====

system: HCT-15 colon; test: NCI tumour cell line growth inhibition, 48 h; in the data active means GI50 below about 0.43 µM; inactive means the rest
Respond with a class label; see Y = active, N = inactive

Reference set (2 entries):
CC1(C)CC[C@]2(C(=O)O)CC[C@]3(C)C(=CC[C@@H]4[C@@]5(C)C/C(=C/c6cccnc6)[C@H](O)C(C)(C)[C@@H]5CC[C@]43C)[C@@H]2C1 = N
CCCN1CCCC(c2ccc(Nc3nc(Nc4cc(F)ccc4C(N)=O)c4cc[nH]c4n3)c(OC)c2)C1 (stereo unspecified) = N

## Input What was the test verdict on O=c1c2cc(F)ccc2sc2c(NCCCNCCO)nc3ccc(F)cc3c12 ?
## Output N

## Input What was the test verdict on Fc1cnccc1-c1nc2ccc3[nH]ncc3c2c2c1CCCC2 ?
## Output N

====

# TGI listing for each entry below
system: IGROV1 ovarian; test: NCI tumour cell line growth inhibition, 48 h

O=C(CNC(=O)c1cccc2ccccc12)Nc1ccccc1Oc1ccc(O)cc1 = > 25 µM
NC(Cc1c2ccccc2cc2ccccc12)C(=O)O (configuration not stated) = > 100 µM
O=C(O)CN1CCN2CCOCCN(CC1)CCN(CC(=O)O)CC2 = > 100 µM

## Input Bench note: what TGI did Cc1ccc(Nc2nc3ccccc3nc2NS(=O)(=O)c2ccc(N)cc2)cc1 show?
## Output > 100 µM

## Input Bench note: what TGI did COCc1nc(C#N)c(N)o1 show?
## Output > 10 µM

## Input Bench note: what TGI did N#Cc1nc(CCC(C(=O)O)N2C(=O)c3ccccc3C2=O)oc1N (configuration not stated) show?
## Output > 100 µM

## Input Bench note: what TGI did CC(=O)NNc1nc(C)c(C(=O)NNC(=O)C(=O)Nc2ccc(C)cc2[N+](=O)[O-])s1 show?
## Output > 100 µM

## Input Bench note: what TGI did O=C(c1ccco1)c1c(C(F)(F)F)n([O-])c2cc(Cl)c(Cl)cc2[n+]1=O show?
## Output 2.53 µM

## Input Bench note: what TGI did O=P(c1ccccc1)(c1ccccc1)C1CC=C2CCCCCC2C1 (configuration not stated) show?
## Output > 100 µM

## Input Bench note: what TGI did Cc1cc(C)c(CNC(=O)c2cc(Cl)c3c(c2C)O[C@@](C)(C2CCC(N(C)C)CC2)O3)c(=O)[nH]1 (some centres not stated) show?
## Output > 100 µM

## Input Bench note: what TGI did Cc1n[nH]c(C)c1-c1c(C)n[nH]c1C show?
## Output 4.3 µM

## Input Bench note: what TGI did CN1CC[C@H](N(C)C(=O)N2CC(c3cc(F)ccc3F)=C[C@@]2(CO)c2ccccc2)[C@H](F)C1 show?
## Output > 100 µM

## Input Bench note: what TGI did Cc1cccc2c(=O)c3cccc(CC(=O)O)c3oc12 show?
## Output > 100 µM

## Input Bench note: what TGI did N#CC(C#N)=CNC(=S)Nc1ccc(S(=O)(=O)Nc2nccs2)cc1 show?
## Output > 100 µM

## Input Bench note: what TGI did CCOP(=O)(OCC)/C(F)=C/c1ccc(F)cc1 show?
## Output > 100 µM

## Input Bench note: what TGI did COC(=O)[C@]1(CCC(C)=O)C(=O)C=CN([C@H](C)c2ccccc2)[C@@H]1Cc1ccc(OC)c(OCc2ccccc2)c1I show?
## Output 29.1 µM

## Input Bench note: what TGI did CC(=O)C1=C(C)N2C(=NC3=C(CCc4ccccc43)C2c2ccc(Cl)cc2)S1 (configuration not stated) show?
## Output > 100 µM

## Input Bench note: what TGI did CCCCCCCC(=O)N1C2CC3CCC2(CS1(=O)=O)C3(C)C (configuration not stated) show?
## Output > 100 µM

## Input Bench note: what TGI did COc1ccc(C2OC2C(=O)C23CC4CC(CC(C4)C2)C3)cc1 (configuration not stated) show?
## Output > 100 µM

## Input Bench note: what TGI did CCOc1ccc(/C=C/C(=O)c2sc(NNC(C)=O)nc2C)cc1 show?
## Output > 100 µM

## Input Bench note: what TGI did C/C(=N\NC(N)=S)c1ccc(Oc2ccccc2)cc1 show?
## Output 12.5 µM

## Input Bench note: what TGI did CC1(C)N=C(N)N=C(N)N1c1cccc(CC(=O)Nc2ccccc2)c1 show?
## Output > 100 µM

## Input Bench note: what TGI did CS(=O)c1cc(=O)c2ccccc2s1 (configuration not stated) show?
## Output 34.2 µM

====

test system: NCI-H460 lung
Respond with a class label; see label 1 (active), label 0 (inactive)

Reference set (2 entries):
CC1(C)N=C(N)N=C(N)N1c1cccc(CC(=O)Nc2ccccc2)c1 = label 0
Nc1ncnc2c1ncn2C1SC(CO)C(O)C1O (stereo not drawn) = label 0

## Input What was the test verdict on FC(F)(F)c1ccc(-c2cnc(-c3nn[nH]n3)nc2NC2CCCCCC2)cc1 ?
## Output label 0

## Input What was the test verdict on CC(C)CC(=O)O[C@H]1C(=O)O[C@@H]2C[C@H]3[C@H](C)C(=O)C(O[C@@H]4O[C@H](CO)[C@@H](O)[C@H](O)[C@H]4O)=C[C@]3(C)[C@H]3[C@@H](O)[C@H](O)[C@]4(C(=O)O)OC[C@]32[C@@H]14 ?
## Output label 0

## Input What was the test verdict on COc1cc(C(=O)N[C@@H]2CCCN(C)C2)ccc1Nc1ncc2c(n1)N(C1CCCC1)CC(C)(C)C(=O)N2C ?
## Output label 1

## Input What was the test verdict on COC(=O)[C@@H](C)C[C@H](Cc1ccccc1)NC(=O)c1nc([C@@H](C[C@H](C(C)C)N(C)C(=O)[C@@H](NC(=O)[C@H]2CC(=O)CCN2C)C(C)C)OC(C)=O)sc1C(C)C ?
## Output label 1

## Input What was the test verdict on C=C1C(=O)O[C@H]2[C@H]1CC/C(COC(=O)NCc1ccc(Cn3c(=O)sn(CCCI)c3=O)cc1)=C\CC[C@@]1(C)O[C@@H]21 ?
## Output label 0

## Input What was the test verdict on CCn1nc(C#Cc2c(C)ccc3c(Nc4ccc(Cl)cc4)nccc23)c2c(N)ncnc21 ?
## Output label 0

## Input What was the test verdict on COc1cc(/C=C2\C(=O)Nc3ccc(O)cc32)cc(OC)c1OC ?
## Output label 0

## Input What was the test verdict on CC(=O)[O-].O=C([CH-]C(=O)c1ccccc1)c1ccccc1.O=C([CH-]C(=O)c1ccccc1)c1ccccc1.[Dy+3] ?
## Output label 0

====

# TGI listing for each entry below
test system: M19-MEL melanoma; experiment: NCI tumour cell line growth inhibition, 48 h

Known TGI results, listed for orientation:
N#CC1(C2CC(=O)N(c3ccccc3)C2=O)CCCCC1=O (configuration not stated) = > 100 µM
CCC[CH2][Sn]1([CH2]CCC)[O]C(=O)c2cccnc2[S]1 = 15.4 µM

## Input Bench note: what TGI did Cc1cc(Br)ccc1N=NC1C(=O)ON=C1c1ccccc1 (configuration not stated) show?
## Output > 100 µM

## Input Bench note: what TGI did N#CC(NNC(=O)c1ccccc1O)c1ccccc1O (configuration not stated) show?
## Output 27.2 µM

====

# TGI listing for each entry below
tested on: SNB-19 CNS; assay: NCI tumour cell line growth inhibition, 48 h

Known TGI results, listed for orientation:
CS(=O)c1cc(=O)c2ccccc2s1 (stereo not given) = 32.3 µM
COc1ncc(-c2ccc3nc(N)n(-c4ccccc4C(F)(F)F)c(=O)c3c2)cc1S(=O)(=O)Nc1ccc(F)cc1F = 45.8 µM
CN1CN(c2ccccc2)C2(CCN(CCCN(C)c3ccc(F)cc3)CC2)C1=O = 56.5 µM
Cc1ccccc1C1N=C2Oc3ccccc3C=C2C(=O)N1 (stereo not given) = > 100 µM
Cc1[nH]n(C(=O)Cc2ccccc2)c(=O)c1/C=C1\C(=O)C=Cc2ccccc21 = > 100 µM
NC(Cc1c2ccccc2cc2ccccc12)C(=O)O (stereo not given) = > 100 µM
CCn1nc(C#Cc2c(C)ccc3c(Nc4ccc(Cl)cc4)nccc23)c2c(N)ncnc21 = > 100 µM
CCOC(=O)c1sc(N)nc1N1CCCC1 = > 100 µM
CN(C)CCCn1c2c(c3ccc(N4CCNCC4)cc3c1=O)C(=O)c1ccccc1-2 = 3.23 µM

Pending molecule:
## Input Bench note: what TGI did CC(=O)NNc1nc(C)c(C(=O)NNC(=O)C(=O)Nc2ccc(C)cc2[N+](=O)[O-])s1 show?
## Output > 100 µM
